test system: cells (nuclei count); settings: 10 μM; toxicity data; 100=DMSO control
Lab note: compare Relative cell count to DMSO controls, Average 10 μM against 100. Equal or greater, write fulfilled. Smaller, write not fulfilled.

compound	answer label
CC1=C(C(=O)NC2CCCCCC2)C(c2cccs2)NC(=O)N1 (stereo not drawn)	fulfilled
COC(=O)c1csc(CN(CCN(C)C)Cc2ccsc2)c1	fulfilled
CCN(CC)CCN(Cc1ccccc1)Cc1ccc(C)o1	fulfilled

Data request: Does the compound CC1=C(C(=O)NCc2ccccc2)C(c2scc3c2OCCO3)NC(=O)N1 (stereo not drawn) have recorded Relative cell count to DMSO controls, Average 10 μM that is 100 or more?
Data returned: not fulfilled

Data request: Does the compound `CN(C)CCN(Cc1cocn1)Cc1cccs1` have recorded Relative cell count to DMSO controls, Average 10 μM that is 100 or more?
Data returned: not fulfilled

Data request: Does the compound `Cc1cc(CN(CCN(C)C)Cc2ccncc2)sc1Br` have recorded Relative cell count to DMSO controls, Average 10 μM that is 100 or more?
Data returned: fulfilled

---

tested on: cells (nuclei count); details: Average of Exp 1 (SMW491) and Exp 2 (SMW492), n=4, 5 uM
quantity kind: Toxicity Data, Average, Mean percentage relative to DMSO control (%)
Numbers only, in %.

Worked cases, answers included:
molecule	units text	quantitative result
CN(C)CCCN(Cc1cccs1)C(=O)c1cccs1 [SILCS40]	%	96.33
CCN(CC)CCN(Cc1ccncc1)C(=O)c1cccs1 [SILCS38]	%	110.00
COc1ccc(C2NC(=O)NC(C)=C2C(=O)NCc2ccccc2)cc1OC (stereo not drawn) [SILCS48]	%	115.84
CCN(CC)CCN(Cc1cc(C)c(Br)s1)Cc1cc(C)c(Br)s1 [SILCS39]	%	114.94
COc1ccc(CNCCc2ccccc2F)c(OCC(O)CN2CCCC2)c1 (racemic) [SILCS43]	%	151.78

Batch: Toxicity Data, Average, Mean percentage relative to DMSO control for all items listed.
1. COc1ccc(CNCCc2ccccc2F)c(OCC(O)CN2CCN(C)CC2)c1 (racemic) [SILCS41]
2. COc1ccc(CNCCc2ccccc2F)c(OCC(O)CN2CCN(C)CC2)c1 (stereo not drawn) [SILCS45]
3. COc1ccc(CNCCc2ccccc2F)c(OCC(O)CN2CCN(C)CC2)c1 (stereo not drawn) [SILCS46]

Data returned:
1: 139.55; 2: 123.47; 3: 131.17

Data request: Indicate its recorded Toxicity Data, Average, Mean percentage relative to DMSO control; the molecule in question is CCN(CC)CCN(Cc1ccccn1)C(=O)c1cccs1 [SILCS37]
Data returned: 110.16

---

Answer each item with its documented Toxicity Data, Average, Mean percentage relative to DMSO control.
tested on: cells (nuclei count); details: Average of Exp 1 (SMW491) and Exp 2 (SMW492), n=4, 50 uM
Answer as a quantity: numeral, then unit.

molecule	result
COc1ccc(C2NC(=O)NC(C)=C2C(=O)NCc2ccccc2)cc1OC (stereo not drawn)	77.81%
COc1ccc(CNCCc2ccccc2F)c(OCC(O)CN2CCN(C)CC2)c1 (stereo not drawn) [SILCS46]	107.72%
COc1ccc(CNCCc2ccccc2F)c(OCC(O)CN2CCN(C)CC2)c1 (racemic) [SILCS41]	101.49%
CCN(CC)CCN(Cc1ccccn1)C(=O)c1cccs1	75.29%
CCN(CC)CCN(Cc1ccncc1)C(=O)c1cccs1	105.21%
CCN(CC)CCN(Cc1cc(C)c(Br)s1)Cc1cc(C)c(Br)s1	46.35%
COc1ccc(CNCCc2ccccc2F)c(OCC(O)CN2CCN(C)CC2)c1 (stereo not drawn) [SILCS45]	125.46%
COc1ccc(CNCCc2ccccc2F)c(OCC(O)CN2CCCC2)c1 (racemic)	0.01%

Let us move to another entry and its Toxicity Data, Average, Mean percentage relative to DMSO control.
Data request: Indicate its recorded Toxicity Data, Average, Mean percentage relative to DMSO control; the molecule in question is `CN(C)CCCN(Cc1cccs1)C(=O)c1cccs1`
Data returned: 117.52%

---

test system: SARS2; assay type: cell-based, SARS-CoV-2; conditions: SARS2, 1 μM
Answer each item with its documented Percentage Inhibition Average 1 μM.
Answers are plain numbers, in %.

Worked cases, answers included:
molecule	target of assay	units text	Percentage Inhibition Average 1 μM
Cc1cc(CN(CCN(C)C)Cc2ccco2)sc1Br	SARS2	%	−8.27
CCN(CC)CCN(Cc1cccs1)C(=O)c1cccs1	SARS2	%	−5.55
CCOc1cccc(CNCCc2ccccc2F)c1OCC(O)CN1CCN(C)CC1 (stereo not shown)	SARS2	%	22.93
Cc1cc(CN(CCN(C)C)Cc2ccncc2)sc1Br	SARS2	%	−5.53
CN1CCN(CC(O)COc2cccc(N3CCCCC3)c2CNCCc2ccccc2F)CC1 (stereo not shown)	SARS2	%	47.40
CN(C)CCN(Cc1ccsc1)Cc1cccc(-c2ccsc2)c1	SARS2	%	−15.20
CC1=C(C(=O)NC2CCCCCC2)C(c2cccs2)NC(=O)N1 (stereo not shown)	SARS2	%	31.90
COc1ccc(C2NC(=O)NC(C)=C2C(=O)NCC2CCCCC2)cc1OC (stereo not shown)	SARS2	%	19.08

Batch: Percentage Inhibition Average 1 μM for all items listed.
1. COc1ccc(C2NC(=O)NC(C)=C2C(=O)NCC2CCC2)cc1OC (stereo not shown)
2. CCN(CC)CCN(Cc1ccccc1)Cc1ccc(C)o1

Data returned:
[20.42, 16.74]

---

Answer each item with its documented Percentage Inhibition Average 25 μM.
tested on: SARS2; type: cell-based, SARS-CoV-2; conditions: SARS2, 25 μM
Answers are plain numbers, in %.

molecule	Percentage Inhibition Average 25 μM [%]
CC1=C(C(=O)NCC2CCC2)C(c2cccs2)NC(=O)N1 (stereo not drawn)	48.59

Batch: Percentage Inhibition Average 25 μM for all items listed.
1. COc1ccc(C2NC(=O)NC(C)=C2C(=O)NCc2ccccc2)cc1OC (stereo not drawn)
2. CCN(CC)CCN(Cc1ccncc1)C(=O)c1cccs1
3. COc1ccc(CNCCc2ccccc2F)c(OCC(O)CN2CCCC2)c1 (racemic)
4. CC1=C(C(=O)NCC2CCCCC2)C(c2cc(C)c(Br)s2)NC(=O)N1 (stereo not drawn)
5. Cc1ccc(CN(CCN(C)C)Cc2ccccc2)o1
6. COc1ccc(-c2[nH]ncc2C(=O)NCC2CCC2)cc1OC
7. CN(C)CCCN(Cc1cccs1)C(=O)c1cccs1

Data returned:
["−0.34", 1.37, 93.88, "−10.69", 64.99, "−5.10", "−41.44"]

Batch: Percentage Inhibition Average 25 μM for all items listed.
1. Cc1cc(CN(CCN(C)C)Cc2ccsc2)oc1C
2. CN(C)CCN(Cc1ccsc1)Cc1ccc(CO)o1
3. Cc1ccc(CN(CCN(C)C)Cc2ccc(CO)o2)s1
4. CN1CCN(CC(O)COc2cccc(N3CCCCC3)c2CNCCc2ccccc2F)CC1 (stereo not drawn)
5. CCN(CC)CCN(Cc1cc(C)c(Br)s1)Cc1cc(C)c(Br)s1
6. CC1=C(C(=O)NC2CCCCCC2)C(c2cccs2)NC(=O)N1 (stereo not drawn)
7. CN(C)CCN(Cc1ccsc1)Cc1ccco1

Data returned:
1: 32.55; 2: −11.45; 3: −42.17; 4: 66.00; 5: 95.89; 6: 56.59; 7: −35.12

---

test system: cells (nuclei count); conditions: average value over the 5 tested concentrations (1 to 50 uM)
Answer each item with its documented Relative cell count to DMSO controls, Average (for correlation analysis).
One number for each entry.

Batch: Relative cell count to DMSO controls, Average (for correlation analysis) for all items listed.
1. Cc1ccc(CN(CCN(C)C)Cc2cc(C#CCO)cs2)s1
2. CN1CCN(CC(O)COc2c(CNCCc3ccccc3F)cccc2C2CCCCC2)CC1 (centres unmarked)
3. COc1ccc(C2NC(=O)NC(C)=C2C(=O)NCC2CCC2)cc1OC (centres unmarked)
4. Cc1csc(CN(CCN(C)C)Cc2ccco2)c1

Data returned:
[101.46, 73.65, 95.13, 80.66]

---

test system: cells (nuclei count); details: 1 μM; toxicity data; 100=DMSO control
quantity kind: Relative cell count to DMSO controls, Average 1 μM
Numbers only.

Worked cases, answers included:
molecule	quantitative result
COc1ccc(C2NC(=O)NC(C)=C2C(=O)NCC2CCCCC2)cc1OC (stereo not shown)	106.9
COc1ccc(C2NC(=O)NC(C)=C2C(=O)NCc2ccccc2)cc1OC (stereo not shown)	119.19
OC(COc1c(CNCCc2ccccc2F)cccc1N1CCNCC1)CN1CCCC1 (stereo not shown)	126.41
CCCCCCCCNC(=O)C1=C(C)NC(=O)NC1c1ccc(OC)c(OC)c1 (stereo not shown)	104.64
CC1=C(C(=O)NC2CCCCCC2)C(c2cccs2)NC(=O)N1 (stereo not shown)	106.46
Cc1ccc(CN(CCN(C)C)Cc2ccc(C)s2)o1	110.82
COc1ccc(-c2[nH]ncc2C(=O)NC2CCCCCC2)cc1OC	111.59
COc1ccc(C2NC(=O)NC(C)=C2C(=O)NCC2CCC2)cc1OC (stereo not shown)	103.13

Batch: Relative cell count to DMSO controls, Average 1 μM for all items listed.
1. CCN(CC)CCN(Cc1ccccn1)C(=O)c1cccs1
2. CN1CCN(CC(O)COc2c(CNCCc3ccccc3F)cccc2C2CCCCC2)CC1 (stereo not shown)

Data returned:
108.95
116.22
